ASSAY SYSTEM: HLA-A*02:01 (Homo sapiens, UniProt P04439, D140Y/D185E/D98H/E176V/E277Q/G131W/G231S/I119V/I121R/I166T/I218V/L300P/L318F/N151K/N90K/P208A/P217A/Q86G/Q94H/R138H/R169H/T345S)
MEASUREMENT DESCRIPTION: MHC binding assay (UV-ligand exchange, β2m ELISA)
STATED CONDITIONS: MHC class I binding score; binding to HLA-A*02:01 ranged by peptide exchange yield (UV-ligand exchange, β2m ELISA)
REPORTED METRIC: Peptide exchange

Answered examples (5):
154 (TLGTATFTV; listed as Homo sapiens) [compound 154] : ++++ (>75% = ++++)
104 (SLDQIIQHL; listed as Homo sapiens) [compound 104] : +++ (>50 = +++)
184 (VLFSSPPVILL; listed as Homo sapiens) [compound 184] : ++++ (>75% = ++++)
144 (SVDEVEISV; listed as Homo sapiens) [compound 144] : +++ (>50 = +++)
20 (VISPHGIASV; listed as Homo sapiens) [compound 20] : ++++ (>75% = ++++)

The substance listed as 236 (GLDSGFHSV; listed as Homo sapiens) [compound 236] has a reported Peptide exchange of ++++ (>75% = ++++)

The substance listed as 113 (VLYSLVSKI; listed as Homo sapiens) [compound 113] has a reported Peptide exchange of +++ (>50 = +++)

The substance listed as 19 (VLAVLGAVVAV; listed as Homo sapiens) [compound 19] has a reported Peptide exchange of +++ (>50 = +++)

The substance listed as 155 (GLAGFFASV; listed as Homo sapiens) [compound 155] has a reported Peptide exchange of ++++ (>75% = ++++)

----------
ASSAY SYSTEM: HLA-A*02:01 (Homo sapiens, UniProt P04439, D140Y/D185E/D98H/E176V/E277Q/G131W/G231S/I119V/I121R/I166T/I218V/L300P/L318F/N151K/N90K/P208A/P217A/Q86G/Q94H/R138H/R169H/T345S)
MEASUREMENT DESCRIPTION: MHC binding assay (UV-ligand exchange, β2m ELISA)
STATED CONDITIONS: MHC class I binding score; binding to HLA-A*02:01 ranged by peptide exchange yield (UV-ligand exchange, β2m ELISA)
REPORTED METRIC: Peptide exchange

34 (YLINFEIRSL; listed as Homo sapiens) [compound 34] : ++++ (>75% = ++++)
148 (TLKDIVQTV; listed as Homo sapiens) [compound 148] : +++ (>50 = +++)
3 (VLFKDPVSV; listed as Homo sapiens) [compound 3] : ++++ (>75% = ++++)
40 (LLSNTVSTL; listed as Homo sapiens) [compound 40] : +++ (>50 = +++)
147 (ILDDQTNKL; listed as Homo sapiens) [compound 147] : +++ (>50 = +++)
110 (VLDTLTKVL; listed as Homo sapiens) [compound 110] : +++ (>50 = +++)
179 (ALDDTVLQV; listed as Homo sapiens) [compound 179] : +++ (>50 = +++)
215 (EVISKLYAV; listed as Homo sapiens) [compound 215] : +++ (>50 = +++)
16 (GLFPSNFVTA; listed as Homo sapiens) [compound 16] : ++++ (>75% = ++++)
149 (YLDTFALKL; listed as Homo sapiens) [compound 149] : ++++ (>75% = ++++)

The substance listed as 86 (HTLPHEIVVNL; listed as Homo sapiens) [compound 86] has a reported Peptide exchange of +++ (>50 = +++)

The substance listed as 21 (FMYNFQLVTL; listed as Homo sapiens) [compound 21] has a reported Peptide exchange of ++ (>20% = ++)
